# Organism: Mus musculus
# assayText: Binding affinity to prostanoid receptor in [8-14C]adenine-treated CD-1 mouse ovary assessed as increase in c-AMP production at 100 ug/ml after 30 mins by paper chromatographic analysis in presence of phosphodiesterase inhibitor theophylline relative to control
# Assay type: tissue-based
# testConditions: Female gonad
Mark class 0 for fold change (FC) values under 20, and class 1 for everything at or above.

>>> category("CCCCCC(O)CCCC(CCCCCCC(=O)O)C(C)=O (stereo not given)")
"class 1"
>>> category("CS(=O)(=O)C(CCCCCCC(=O)O)CCCC(O)COc1ccc(F)cc1 (stereo not given)")
"class 1"
>>> category("CCCCCC(O)CCCCCS(=O)(=O)CCCCCCCC(=O)O (racemic)")
"class 0"
>>> category("CCCCCC(O)CCCC(CCCCCCC(=O)O)S(C)(=O)=O (mixture of isomers)")
"class 1"
>>> category("CCCCCC(O)CCCC(CCCCCCC(=O)O)SCCO (mixture of isomers)")
"class 0"

* * *

# Species on record: Rattus norvegicus
# assayText: Binding affinity to prostanoid receptor in rat lipocytes assessed as compound equivalent to cold PGE1 in displacing [3H]-PGE1 from receptor after 60 mins
# Assay type: cell-based
# INH values compiled below
parameterMeasured: INH (µgequiv)

>>> quantitativeresult("CS(=O)(=O)C(CCCCCCC(=O)O)CCCC(O)COc1ccc(F)cc1 (stereo unspecified)")
1.11
>>> quantitativeresult("CCCCCC(O)CCCC(CCCCCCC(=O)O)S(C)(=O)=O (mixture of isomers)")
0.67
>>> quantitativeresult("CCCCCC(O)CCCC(CCCCCCC(=O)O)[S+](C)[O-] (mixture of isomers)")
7.14
>>> quantitativeresult("CCCCCC(O)CCCC(CCCCCCC(=O)O)SC (mixture of isomers)")
0.77

Attribution: ChEMBL document CHEMBL3243919
